biological target: beta-amyloid 42 (Aβ42) (Homo sapiens, UniProt P05067); construct: Beta-amyloid 42 (Aβ42) was dissolved in dimethylsulfoxide (DMSO); assay: Inhibitory effect on the formation of beta-amyloid fibrils in vitro (ThT fluorescence assay); format: biochemical; details: 10 μM compound; Aβ42 25 μM; experiment of Table 2; read-out: % Inhibition (10 μM)
Sequence (P05067 672-713 limits assumed): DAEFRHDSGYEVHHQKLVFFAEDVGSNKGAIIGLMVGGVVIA
Record True whenever inhibition at 10 µM is at 70% or higher; record False when lower.

Ask: Quick check: does CCN(CC)c1ccc(C=Cc2cc3cc(OC)ccc3o2)cc1 [Compound 35] have inhibition at 10 µM greater than or equal to 70%?
Result: False

Ask: Quick check: does COc1ccc(C=Cc2cc3cc(Cl)ccc3o2)cc1OC [Compound 34] have inhibition at 10 µM greater than or equal to 70%?
Result: True

Ask: Quick check: does COc1cc(/C=C/C(=O)CC(=O)/C=C/c2ccc(O)c(OC)c2)ccc1O [curcumin, reference compound] have inhibition at 10 µM greater than or equal to 70%?
Result: True

Ask: Quick check: does CCN(CC)c1ccc(C=Cc2cc3cc(O)ccc3o2)cc1 [Compound 56] have inhibition at 10 µM greater than or equal to 70%?
Result: True
